Molecular target: Cys12 of the KRAS 4B G12C protein (Homo sapiens, UniProt P01116, G12C)
Construct: This protein contained 188 amino acids in total, including an N-terminal 6-Histidine tag; made in house; host or cells: E. coli BL21
Test: In vitro covalent adduct formation (CAF) assay, LC-MS intact mass
Type: binding
Settings: after 60 min
metric: CAF (% binding after 60 min) (%)

>  <compound>
C=CC(=O)N1[C@H](C)CN(c2nc(=O)n3c4c(c(-c5ccc(F)c(Cl)c5)c(C(F)(F)F)cc24)SC[C@@H](OCCOC)C3)C[C@@H]1C [Example 1029]

>  <experimentalValue>
96

$$$$
>  <compound>
C=CC(=O)N1[C@H](C)CN(c2nc(=O)n3c4c(c(-c5ccc(F)c(Cl)c5)c(C(F)(F)F)cc24)SC[C@H](OC)C3)C[C@@H]1C [Example 1045]

>  <experimentalValue>
96

$$$$
>  <compound>
C=CC(=O)N1[C@H](C)CN(c2nc(=O)n3c4c(c(-c5ccc(F)cc5)c(C(F)(F)F)cc24)SC[C@@H](OCCN(C)C)C3)C[C@@H]1C [Example 1033]

>  <experimentalValue>
96

$$$$

====

Molecular target: Cys12 of the KRAS 4B G12C protein (Homo sapiens, UniProt P01116, G12C)
Construct: This protein contained 188 amino acids in total, including an N-terminal 6-Histidine tag; made in house; host or cells: E. coli BL21
Test: In vitro covalent adduct formation (CAF) assay, LC-MS intact mass
Format: binding
Settings: 10 uM compound, 60 min
metric: % CAF 10 uM @ 60 min (%)

>  <compound>
C=CC(=O)N1[C@H](C)CN(c2nc(=O)n3c4c(c(-c5ccc(F)cc5F)c(Cl)cc24)SC[C@@H]3COC)C[C@@H]1C [Example 1343a]

>  <experimentalValue>
96.8

$$$$
>  <compound>
C=CC(=O)N1[C@H](C)CN(c2nc(=O)n3c4c(c(-c5ccc(F)cc5F)c(C(F)(F)F)cc24)SC[C@@H]3CN2CC[C@H](F)C2)C[C@@H]1C (atropisomer, axis not shown) [Example 1428]

>  <experimentalValue>
72

$$$$
>  <compound>
C=CC(=O)N1CCN(c2nc(=O)n3c4c(c(-c5ccc(F)cc5F)c(C(F)(F)F)cc24)SC[C@@H]3CN2CCN(CC)CC2)CC1 (atropisomer, axis not shown) [Example 1317]

>  <experimentalValue>
98.3

$$$$
>  <compound>
C=CC(=O)N1[C@H](C)CN(c2nc(=O)n3c4c(c(-c5cc(Cl)c(F)cc5F)c(C(F)(F)F)cc24)SCC(COC)(COC)C3)C[C@@H]1C [Example 1410]

>  <experimentalValue>
95.3

$$$$
>  <compound>
C=CC(=O)N1C2CCC1CN(c1nc(=O)n3c4c(c(-c5cc(Cl)c(F)cc5F)c(C(F)(F)F)cc14)SCC1(COC1)C3)C2 [Example 1402]

>  <experimentalValue>
6.8

$$$$

====

Biological target: Cys12 of the KRAS 4B G12C protein (Homo sapiens, UniProt P01116, G12C)
Construct: This protein contained 188 amino acids in total, including an N-terminal 6-Histidine tag; made in house; host or cells: E. coli BL21
Assay: In vitro covalent adduct formation (CAF) assay, LC-MS intact mass
Format: binding
Details: after 60 min
metric: CAF (% binding after 60 min) (%)

>  <lineNotation>
C=CC(=O)N1[C@H](C)CN(c2nc(=O)n3c4c(c(-c5cc(Cl)c(F)cc5F)c(C(F)(F)F)cc24)SC[C@@H](OCCN(C)C)C3)C[C@@H]1C

>  <metric>
CAF (% binding after 60 min)

>  <units>
%

>  <experimentalValue>
97

$$$$
>  <lineNotation>
C=CC(=O)N1CCN(c2nc(=O)n3c4c(c(-c5ccc(F)c(Cl)c5)c(C(F)(F)F)cc24)SC[C@@H](OC)C3)CC1

>  <metric>
CAF (% binding after 60 min)

>  <units>
%

>  <experimentalValue>
97

$$$$
>  <lineNotation>
C=CC(=O)N1[C@H](C)CN(c2nc(=O)n3c4c(c(-c5ccc(F)cc5)c(C(F)(F)F)cc24)SC[C@H](OCOC)C3)C[C@@H]1C

>  <metric>
CAF (% binding after 60 min)

>  <units>
%

>  <experimentalValue>
96

$$$$
>  <lineNotation>
C=CC(=O)N1[C@H](C)CN(c2nc(=O)n3c4c(c(-c5ccc(F)cc5)c(C(F)(F)F)cc24)SC[C@@H](N)C3)C[C@@H]1C

>  <metric>
CAF (% binding after 60 min)

>  <units>
%

>  <experimentalValue>
92

$$$$
>  <lineNotation>
C=CC(=O)N1CCN(c2nc(=O)n3c4c(c(-c5ccc(F)c(Cl)c5)c(C(F)(F)F)cc24)SC[C@@H](OCCOC)C3)CC1

>  <metric>
CAF (% binding after 60 min)

>  <units>
%

>  <experimentalValue>
97

$$$$
>  <lineNotation>
C=CC(=O)N1CCN(c2nc(=O)n3c4c(c(-c5ccc(F)cc5)c(C(F)(F)F)cc24)SC[C@@H](OCOC)C3)CC1

>  <metric>
CAF (% binding after 60 min)

>  <units>
%

>  <experimentalValue>
97

$$$$
>  <lineNotation>
C=CC(=O)N1[C@H](C)CN(c2nc(=O)n3c4c(c(-c5cc(Cl)c(F)cc5F)c(C(F)(F)F)cc24)SC[C@H](OCCOC)C3)C[C@@H]1C

>  <metric>
CAF (% binding after 60 min)

>  <units>
%

>  <experimentalValue>
96

$$$$
>  <lineNotation>
C=CC(=O)N1CCN(c2nc(=O)n3c4c(c(-c5cc(Cl)c(F)cc5F)c(C(F)(F)F)cc24)SC[C@@H](OCCOC)C3)CC1

>  <metric>
CAF (% binding after 60 min)

>  <units>
%

>  <experimentalValue>
97

$$$$
>  <lineNotation>
C=CC(=O)N1CCN(c2nc(=O)n3c4c(c(-c5ccc(F)cc5F)c(C(F)(F)F)cc24)SC[C@H](OCCOC)C3)CC1

>  <metric>
CAF (% binding after 60 min)

>  <units>
%

>  <experimentalValue>
96

$$$$
>  <lineNotation>
C=CC(=O)N1[C@H](C)CN(c2nc(=O)n3c4c(c(-c5ccc(F)cc5F)c(C(F)(F)F)cc24)SC[C@@H](OCCOC)C3)C[C@@H]1C

>  <metric>
CAF (% binding after 60 min)

>  <units>
%

>  <experimentalValue>
96

$$$$
>  <lineNotation>
C=CC(=O)N1[C@H](C)CN(c2nc(=O)n3c4c(c(-c5ccc(F)cc5)c(C(F)(F)F)cc24)SC[C@H](OCCOC)C3)C[C@@H]1C

>  <metric>
CAF (% binding after 60 min)

>  <units>
%

>  <experimentalValue>
97

$$$$
>  <lineNotation>
C=CC(=O)N1CCN(c2nc(=O)n3c4c(c(-c5ccc(F)cc5)c(C(F)(F)F)cc24)SC[C@H](OCCOC)C3)CC1

>  <metric>
CAF (% binding after 60 min)

>  <units>
%

>  <experimentalValue>
98

$$$$

====

Target: K-Ras G12C (Homo sapiens, UniProt P01116, G12C)
Construct: This protein contained 188 amino acids in total, including an N-terminal 6-Histidine tag; made in house; host or cells: E. coli BL21
Assay: CAF assay (% CAF; method in Example 7, not in this part)
Assay type: binding
Conditions: 10 uM compound, 1 h incubation
metric: % CAF @ 10 uM, 1h (%)

a: C=CC(=O)N1C[C@H](C)N(c2nc(=O)n3c4c(c(-c5cc(F)c(F)cc5F)c(Cl)cc24)SC[C@@H]3CC2CCN(C3CC3)CC2)C[C@H]1C [Example 475]
b: C=CC(=O)N1C[C@H](C)N(c2nc(=O)n3c4c(c(-c5ccc(F)cc5F)c(C(F)(F)F)cc24)SC[C@@H]3COCCOC)C[C@H]1C [Example 498]
Between a and b , which one has the lower reported % CAF @ 10 uM, 1h value? State the label of the item chosen.
a
(a: 49.8%, b: 81.2%)

a: C=CC(=O)N1CCN(c2nc(=O)n3c4c(c(-c5ccc(F)cc5F)c(C(F)(F)F)cc24)S[C@H](COC)C3)[C@@H](C)C1 [Example 507]
b: C=CC(=O)N1C[C@H](C)N(c2nc(=O)n3c4c(c(-c5cc(F)c(F)cc5F)c(C(F)(F)F)cc24)SC[C@@H]3CN2CCN(CC(F)F)CC2)C[C@H]1C [Example 443]
Hi, I'm comparing a with b and wondering which one has the bigger number for % CAF @ 10 uM, 1h. Any idea? State the label of the item chosen.
a
(a: 71%, b: 48.2%)

A: C=CC(=O)N1CCN(c2nc(=O)n3c4c(c(-c5ccc(F)cc5F)c(Cl)cc24)SC[C@@H]3CC2CCN(C3COC3)CC2)[C@@H](C)C1 [Example 415]
B: C=CC(=O)N1C[C@H](C)N(c2nc(=O)n3c4c(c(-c5ccc(F)cc5)c(C(F)(F)F)cc24)SC[C@@H]3CC2CN(CC(F)F)C2)C[C@H]1C [Example 481]
Between A and B , which one has the lower reported % CAF @ 10 uM, 1h value? State the label of the item chosen.
B

A: C=CC(=O)N1CCN(c2nc(=O)n3c4c(c(-c5ccc(F)cc5F)c(C(F)(F)F)cc24)SC[C@@H]3COC)CC1 [Example 514]
B: C=CC(=O)N1C[C@H](C)N(c2nc(=O)n3c4c(c(-c5ccc(F)cc5F)c(Cl)cc24)SC[C@@H]3CN2C[C@@H]3C[C@H]2CO3)C[C@H]1C [Example 519]
Between A and B , which one has the lower reported % CAF @ 10 uM, 1h value? State the label of the item chosen.
B
(B: 61.3%, A: 96.1%)

a: C=CC(=O)N1CCN(c2nc(=O)n3c4c(c(-c5ccc(F)cc5)c(C(F)(F)F)cc24)SC[C@H](OC)C3)[C@@H](C)C1 [Example 527]
b: C=CC(=O)N1C[C@H](C)N(c2nc(=O)n3c4c(c(-c5ccc(F)cc5F)c(Cl)cc24)SC[C@@H]3COCCOC)C[C@H]1C [Example 501]
Between a and b , which one has the lower reported % CAF @ 10 uM, 1h value? State the label of the item chosen.
b

A: C=CC(=O)N1CCN(c2nc(=O)n3c4c(c(-c5ccc(F)cc5F)c(C(F)(F)F)cc24)SC[C@@H](OC)C3)CC1 [Example 489]
B: C=CC(=O)N1CCN(c2nc(=O)n3c4c(c(-c5ccc(F)cc5F)c(Cl)cc24)SC[C@@H]3CC2CCN(C)CC2)[C@@H](C)C1 [Example 423]
Between A and B , which one has the lower reported % CAF @ 10 uM, 1h value? State the label of the item chosen.
B
